- system tested: UniProt:P12931
- experimental details: TR-FRET c-Src kinase assay
- Type: biochemical
- assay setup: read-out: c-SRC % inhibition at 1 μM; 1 μM; ATP 50 μM
value type: inhibition at 1 µM
Record the result as a number with its unit.

// below: answered compounds
compound	inhibition at 1 µM
CN1CCN(c2ccc(Nc3ncc4c(n3)CCN(c3cc(NC(=O)c5cccc(C(F)(F)F)c5)ccc3Cl)C4=O)cc2)CC1 [Compound 162]	81%
CNC(=O)c1ccc(Nc2ncc3c(n2)CCN(c2cc(NC(=O)c4cc(F)cc(C(F)(F)F)c4)ccc2Cl)C3)cc1 [Compound 177]	96%
Cc1ccc(NC(=O)CCC(F)(F)F)cc1N1CCc2nc(Nc3ccc(OCCN4CCCC4)cc3)ncc2C1 [Compound 147]	90%

For the 4 compounds below, give their inhibition at 1 µM values.
1. Cc1ccc(NC(=O)c2cccc(C(F)(F)F)c2)cc1N1CCc2nc(Nc3ccc(C(=O)NC4CCN(C)CC4)nc3)ncc2C1 [Compound 148]
2. CN1CCN(c2ccc(Nc3ncc4c(n3)CCN(c3cc(NC(=O)c5cc(F)cc(C(F)(F)F)c5)ccc3Cl)C4=O)cc2)CC1 [Compound 172]
3. Cc1ccc(NC(=O)c2cc(C(F)(F)F)ccn2)cc1N1CCc2nc(Nc3ccc(C(=O)N4CCN(C)CC4)cc3)ncc2C1=O [Compound 170]
4. Cc1ccc(NC(=O)CC2CCCC2)cc1N1CCc2nc(Nc3ccc(OCCN4CCCC4)cc3)ncc2C1 [Compound 108]

["99%", "72%", "58%", "100%"]

---

- system tested: c-Src (Homo sapiens (Human), UniProt P12931)
- Sequence (P12931 whole entry, looked up): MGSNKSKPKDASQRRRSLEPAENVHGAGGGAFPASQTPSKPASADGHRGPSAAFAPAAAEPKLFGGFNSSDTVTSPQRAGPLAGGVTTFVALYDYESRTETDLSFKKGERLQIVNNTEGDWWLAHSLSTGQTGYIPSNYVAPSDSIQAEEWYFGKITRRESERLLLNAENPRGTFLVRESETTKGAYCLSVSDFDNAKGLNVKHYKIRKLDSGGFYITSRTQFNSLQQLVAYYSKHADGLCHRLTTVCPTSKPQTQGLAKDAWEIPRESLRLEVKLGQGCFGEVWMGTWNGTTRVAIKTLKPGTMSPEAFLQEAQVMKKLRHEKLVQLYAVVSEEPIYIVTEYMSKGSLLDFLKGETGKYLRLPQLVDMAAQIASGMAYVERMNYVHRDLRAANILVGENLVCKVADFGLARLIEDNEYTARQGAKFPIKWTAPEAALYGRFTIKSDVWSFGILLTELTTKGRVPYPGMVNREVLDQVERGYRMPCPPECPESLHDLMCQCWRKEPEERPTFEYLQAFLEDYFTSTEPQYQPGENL
- experimental details: TR-FRET c-Src kinase assay
- Assay type: biochemical
- assay setup: read-out: c-SRC % inhibition at 100 nM; 100 nM; ATP 50 μM
value type: inhibition at 0.1 µM
Record the result as a number with its unit.

// below: answered compounds
compound	system tested	inhibition at 0.1 µM
Cc1ccc(NC(=O)CCC(F)(F)F)cc1N1CCc2nc(Nc3ccc(OCCN4CCCC4)cc3)ncc2C1 [Compound 147]	c-Src (Homo sapiens (Human), UniProt P12931)	67%
CN1CCN(c2ccc(Nc3ncc4c(n3)CCN(c3cc(NC(=O)c5cccc(C(F)(F)F)c5)ccc3Cl)C4)cc2)CC1 [Compound 174]	c-Src (Homo sapiens (Human), UniProt P12931)	95%
Cc1cc(Nc2ncc3c(n2)CCN(c2cc(NC(=O)c4cccc(C(F)(F)F)c4)ccc2Cl)C3=O)ccc1N1CCN(C)CC1 [Compound 171]	c-Src (Homo sapiens (Human), UniProt P12931)	74%
Cc1ccc(NC(=O)c2cccc(C(F)(F)F)c2)cc1N1CCc2nc(Nc3ccc(N4CCNCC4)cc3)ncc2C1=O [Compound 178]	c-Src (Homo sapiens (Human), UniProt P12931)	77%
Cc1ccc(NC(=O)c2ccc(C(F)(F)F)s2)cc1N1CCc2nc(Nc3ccc(OCCN4CCCC4)cc3)ncc2C1 [Compound 106]	c-Src (Homo sapiens (Human), UniProt P12931)	99%

For the 2 compounds below, give their inhibition at 0.1 µM values.
1. CNC(=O)c1ccc(Nc2ncc3c(n2)CCN(c2cc(NC(=O)c4cc(C(F)(F)F)ccn4)ccc2Cl)C3)cc1 [Compound 179]
2. Cc1ccc(NC(=O)c2cc(C(F)(F)F)ccn2)cc1N1CCc2nc(Nc3ccc(C(=O)N4CCN(C)CC4)cc3)ncc2C1=O [Compound 170]

1. 79%
2. 26%

// provenance: patent US8962637B2
